Target: Human M4 (Homo sapiens, UniProt P08173)
Sequence (P08173 1-479): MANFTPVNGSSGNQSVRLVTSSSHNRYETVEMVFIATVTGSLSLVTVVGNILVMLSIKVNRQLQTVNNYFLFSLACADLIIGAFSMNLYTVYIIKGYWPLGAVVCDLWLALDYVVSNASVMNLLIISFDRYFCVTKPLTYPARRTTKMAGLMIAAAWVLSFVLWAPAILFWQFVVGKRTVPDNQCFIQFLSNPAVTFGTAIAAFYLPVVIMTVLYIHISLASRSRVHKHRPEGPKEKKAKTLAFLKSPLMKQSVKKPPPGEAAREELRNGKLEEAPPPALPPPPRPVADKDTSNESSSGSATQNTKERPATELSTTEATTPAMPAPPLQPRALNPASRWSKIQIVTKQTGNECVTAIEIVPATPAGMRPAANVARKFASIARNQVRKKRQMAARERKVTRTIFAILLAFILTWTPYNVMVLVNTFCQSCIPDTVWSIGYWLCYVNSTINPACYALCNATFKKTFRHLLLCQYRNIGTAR
Experiment: mAChR M4 cell-based functional assay (calcium flux, potentiation of EC20 acetylcholine response)
Parameters: dose or concentration left out as unconfirmed
Structures can show the parent of a compound that is named as a salt.
Each entry below carries its reported Emax.
Number only, in %; omit the unit.

>  <Molecule>
COc1ccc(CNc2nccc3c2sc2nnc(Cl)c(C)c23)cc1F [Compound 36]

>  <Reported Result>
97.6

$$$$
>  <Molecule>
Cc1cc(C)c2c(n1)sc1c(N3CCCC3)nccc12 [Compound 2]

>  <Reported Result>
97.8

$$$$
>  <Molecule>
COc1ccc(CNc2nccc3c2sc2nnc(C)c(C)c23)cc1F [Compound 14, hydrochloride]

>  <Reported Result>
91.3

$$$$

Problem: Need Emax, item Cc1nnc2sc3c(NCc4ccc(OC(F)(F)F)cc4)nccc3c2c1C [Compound 11, hydrochloride]
Solution: 72.8

Problem: Need Emax, item Cc1cc(C)c2c(n1)sc1c(N(C)C)nccc12 [Compound 4]
Solution: 81.9

Problem: Need Emax, item COc1ccc(CNc2nccc3c2sc2nnc(Cl)c(C)c23)cc1 [Compound 32]
Solution: 77.5

Problem: Need Emax, item COc1ccc(CNc2nccc3c2sc2nc(C)cc(C)c23)cc1F [Compound 25]
Solution: 90.3

Problem: Need Emax, item Cc1nnc2sc3c(NCc4ccc(C(C)(C)O)cc4)nccc3c2c1C [Compound 15]
Solution: 97.4

Problem: Need Emax, item COc1nnc2sc3c(NC4CCC4)nccc3c2c1C [Compound 39]
Solution: 93.2

Problem: Need Emax, item Cc1cc(C)c2c(n1)sc1c(NC3CN(c4ncc(C(F)(F)F)cn4)C3)nccc12 [Compound 24]
Solution: 80.1

Problem: Need Emax, item Cc1nnc2sc3c(NCc4ccc(C(=O)N5CCOCC5)cc4)nccc3c2c1C [Compound 13]
Solution: 81.9

Problem: Need Emax, item Cc1nc2sc3c(NCc4ccc(C(C)(C)O)c(F)c4)nccc3c2c(C)c1Cl [Compound 31]
Solution: 76.6

Problem: Need Emax, item Cc1cc(C)c2c(n1)sc1c(NCc3ccc(C(C)(C)O)cc3)nccc12 [Compound 26]
Solution: 101
